- Tested on: LXRb:RXRa (NR concentration 270 nM, RXRa partner concentration 90 nM)
- PROTOCOL TEXT: PBM binding z-score (relative to random genomic background probes); higher = stronger binding; sequences stand for … in GC…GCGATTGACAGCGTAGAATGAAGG
Heads up, the class ranges for PBM binding z-score are small value: < 0.2; mid value: ≥ 0.2 and < 4; large value: ≥ 4

Would you please look over these solved cases?
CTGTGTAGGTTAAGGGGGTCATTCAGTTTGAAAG    large value
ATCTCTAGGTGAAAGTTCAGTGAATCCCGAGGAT    mid value
CCTACTGGGCCAAAGGCCATTGATTCCAATGCTC    small value
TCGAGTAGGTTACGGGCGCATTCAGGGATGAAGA    small value
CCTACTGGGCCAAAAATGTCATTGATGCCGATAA    small value
AATACAGGGTCACTAGGCCAGAGTGGGTACGAAT    mid value
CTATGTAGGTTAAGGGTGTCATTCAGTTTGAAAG    mid value
TCGAGTAGGGTACGGGGGCATTCAGGGATGAAGA    large value
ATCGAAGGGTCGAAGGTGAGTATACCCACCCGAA    mid value
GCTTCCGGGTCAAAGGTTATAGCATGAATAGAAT    large value

[Q] Using the reported PBM binding z-score, which band applies to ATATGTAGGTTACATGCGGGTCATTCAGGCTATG ?
[A] mid value
